- run.parameters: in n-butanol, 293.15 K
measurement.kind: solubility (mole fraction)

INSERT INTO assay_data (molecule, reported_measurement) VALUES
  ('CCC[C@@H]1C[C@@H](C(=O)N[C@@H]([C@H]2O[C@H](SC)[C@H](O)[C@H]3OC(C)(C)O[C@H]32)[C@H](C)Cl)N(C)C1', 0.0391);

* * *

- run.parameters: in sec-butanol, 278.15 K
measurement.kind: solubility (mole fraction)

INSERT INTO results (molecule, measurement_kind, reported_measurement) VALUES
  ('CCC[C@@H]1C[C@@H](C(=O)N[C@@H]([C@H]2O[C@H](SC)[C@H](O)[C@H]3OC(C)(C)O[C@H]32)[C@H](C)Cl)N(C)C1', 'solubility (mole fraction)', 0.0282);

* * *

- run.parameters: in acetone, 283.15 K
measurement.kind: solubility (mole fraction)

INSERT INTO results (molecule, measurement_kind, reported_measurement) VALUES
  ('CCC[C@@H]1C[C@@H](C(=O)N[C@@H]([C@H]2O[C@H](SC)[C@H](O)[C@H]3OC(C)(C)O[C@H]32)[C@H](C)Cl)N(C)C1', 'solubility (mole fraction)', 0.0164);

* * *

- run.parameters: in ethanol, 298.15 K
measurement.kind: solubility (mole fraction)

INSERT INTO measurements (molecule, reported_measurement) VALUES
  ('CCC[C@@H]1C[C@@H](C(=O)N[C@@H]([C@H]2O[C@H](SC)[C@H](O)[C@H]3OC(C)(C)O[C@H]32)[C@H](C)Cl)N(C)C1', 0.0352);

* * *

- run.parameters: in acetonitrile, 308.15 K
measurement.kind: solubility (mole fraction)

INSERT INTO measurements (molecule, reported_measurement) VALUES
  ('CCC[C@@H]1C[C@@H](C(=O)N[C@@H]([C@H]2O[C@H](SC)[C@H](O)[C@H]3OC(C)(C)O[C@H]32)[C@H](C)Cl)N(C)C1', 0.0153);
